System: MFM-223
Test: normalised response (% of control), CellTiter-Glo; higher = more viable cells (100 = DMSO, 0 = benzethonium chloride kill control)
Settings: incubation time: 72 h
Assay metric: normalised response

{"Compound": "Cc1cnc(NC(=O)Nc2cc(Br)c(C)cc2OC[C@@H]2CNCCO2)cn1 [Rabusertib] (1000 nM)", "Result": "98.2%"}
{"Compound": "N#Cc1ccc(C(c2ccc(C#N)cc2)n2cncn2)cc1 [Letrozole] (10000 nM)", "Result": "99.8%"}
{"Compound": "CNC(=O)c1cc(Oc2ccc(NC(=O)Nc3cc(C(C)(C)C)nn3-c3ccc4ncccc4c3)c(F)c2)ccn1 [Rebastinib] (1000 nM)", "Result": "62.2%"}
{"Compound": "C[C@H]1C[C@@H]2[C@H]([C@@H](O)C[C@@]3(C)[C@H]2CC[C@]3(O)C(=O)CO)[C@@]2(C)C=CC(=O)C=C12 [Methylprednisolone] (10000 nM)", "Result": "99.6%"}
{"Compound": "COc1cc([C@@H]2c3cc4c(cc3[C@@H](O[C@@H]3O[C@@H]5CO[C@@H](c6cccs6)O[C@H]5[C@H](O)[C@H]3O)[C@H]3COC(=O)[C@H]23)OCO4)cc(OC)c1O [Teniposide] (10000 nM)", "Result": "12.9%"}
{"Compound": "CC1=C(/C=C/C(C)=C/C=C/C(C)=C/C(=O)O)C(C)(C)CCC1 [Tretinoin] (10000 nM)", "Result": "78.9%"}
{"Compound": "CCN(CC)CCCC(C)Nc1c2ccc(Cl)cc2nc2ccc(OC)cc12 (stereo not given) [Mepacrine] (50000 nM)", "Result": "93.5%"}
{"Compound": "CC[C@@H]1C(=O)N(C)c2cnc(Nc3ccc(C(=O)NC4CCN(C)CC4)cc3OC)nc2N1C1CCCC1 [BI 2536] (1000 nM)", "Result": "55.6%"}
{"Compound": "O=C(O)C(=O)O.[NH-][C@@H]1CCCC[C@H]1[NH-].[Pt+2] [Oxaliplatin] (10000 nM)", "Result": "86.9%"}
{"Compound": "O=C(/C=C/c1cccnc1)NCCCCC1CCN(C(=O)c2ccccc2)CC1 [Daporinad] (1000 nM)", "Result": "4.89%"}

---

// reported normalised viability for each item listed
Tested on: CAL-51
Assay: normalised viability (% of control), CellTiter-Blue; higher = more viable cells (about 100 = DMSO control)
Conditions: 1000 nM; incubation time: 72 h

{"Structure as smiles": "CC[C@H](Nc1ncnc2[nH]cnc12)c1nc2cccc(F)c2c(=O)n1-c1ccccc1", "Experimental system": "CAL-51", "normalised viability, %": 81.9}
{"Structure as smiles": "CCCCC(=O)OCC(=O)[C@]1(O)Cc2c(O)c3c(c(O)c2[C@@H](O[C@H]2C[C@H](NC(=O)C(F)(F)F)[C@H](O)[C@H](C)O2)C1)C(=O)c1c(OC)cccc1C3=O", "Experimental system": "CAL-51", "normalised viability, %": 23.1}
{"Structure as smiles": "CCc1cncnc1N1CCN(Cc2nc3ccc(C(F)(F)F)cc3[nH]2)CC1", "Experimental system": "CAL-51", "normalised viability, %": 87}
{"Structure as smiles": "CC1=C(/C=C/C(C)=C/C=C/C(C)=C/C(=O)O)C(C)(C)CCC1", "Experimental system": "CAL-51", "normalised viability, %": 93.2}
{"Structure as smiles": "C1CN1c1nc(N2CC2)nc(N2CC2)n1", "Experimental system": "CAL-51", "normalised viability, %": 104}
{"Structure as smiles": "Nc1nc(F)nc2c1ncn2[C@@H]1O[C@H](CO)[C@@H](O)[C@@H]1O", "Experimental system": "CAL-51", "normalised viability, %": 102}
{"Structure as smiles": "O=C(O)C(=O)O.[NH-][C@@H]1CCCC[C@H]1[NH-].[Pt+2]", "Experimental system": "CAL-51", "normalised viability, %": 91.1}
{"Structure as smiles": "N#Cc1ccc(C(c2ccc(C#N)cc2)n2cncn2)cc1", "Experimental system": "CAL-51", "normalised viability, %": 106}
{"Structure as smiles": "O=C(Cc1ccc(-c2ccc(OCCN3CCOCC3)cc2)cn1)NCc1ccccc1", "Experimental system": "CAL-51", "normalised viability, %": 11.1}

---

System: HCC1143
Test: normalised response (% of control), CellTiter-Glo; higher = more viable cells (100 = DMSO, 0 = benzethonium chloride kill control)
Conditions: incubation time: 72 h
Entries and their normalised response values follow.

{"Molecule": "C[C@H]1C[C@@H]2[C@H]([C@@H](O)C[C@@]3(C)[C@H]2CC[C@]3(O)C(=O)CO)[C@@]2(C)C=CC(=O)C=C12 [Methylprednisolone] (10 nM)", "Experimental system": "HCC1143", "normalised response / %": 104}
{"Molecule": "CC[C@H](Nc1ncnc2[nH]cnc12)c1nc2cccc(F)c2c(=O)n1-c1ccccc1 [GS-1101] (10 nM)", "Experimental system": "HCC1143", "normalised response / %": 93.2}
{"Molecule": "CNC(=O)c1cc(Oc2ccc(NC(=O)Nc3cc(C(C)(C)C)nn3-c3ccc4ncccc4c3)c(F)c2)ccn1 [Rebastinib] (100 nM)", "Experimental system": "HCC1143", "normalised response / %": 110}
{"Molecule": "O=C(O)C(=O)O.[NH-][C@@H]1CCCC[C@H]1[NH-].[Pt+2] [Oxaliplatin] (10 nM)", "Experimental system": "HCC1143", "normalised response / %": 94}
{"Molecule": "C=CCc1cccc(/C=N/NC(=O)CN2CCN(Cc3ccccc3)CC2)c1O [PAC-1] (10 nM)", "Experimental system": "HCC1143", "normalised response / %": 100}
{"Molecule": "Oc1ncc(N(CCCl)CCCl)c(O)n1 [Uracil mustard] (10 nM)", "Experimental system": "HCC1143", "normalised response / %": 105}
{"Molecule": "COc1cc2c(NC3CCN(C(C)C)CC3)nc(C3CCCCC3)nc2cc1OCCCN1CCCC1 [UNC0638] (10 nM)", "Experimental system": "HCC1143", "normalised response / %": 102}
{"Molecule": "CNC(=O)c1cc(Oc2ccc(NC(=O)Nc3cc(C(C)(C)C)nn3-c3ccc4ncccc4c3)c(F)c2)ccn1 [Rebastinib] (1 nM)", "Experimental system": "HCC1143", "normalised response / %": 104}
{"Molecule": "O=C(O)CCCCC(CCSCc1ccccc1)SCc1ccccc1 (stereo not drawn) [CPI-613] (1000 nM)", "Experimental system": "HCC1143", "normalised response / %": 102}
{"Molecule": "O=C(Cc1ccc(-c2ccc(OCCN3CCOCC3)cc2)cn1)NCc1ccccc1 [KX2-391] (10 nM)", "Experimental system": "HCC1143", "normalised response / %": 104}
{"Molecule": "CCc1cncnc1N1CCN(Cc2nc3ccc(C(F)(F)F)cc3[nH]2)CC1 (10 nM)", "Experimental system": "HCC1143", "normalised response / %": 111}
{"Molecule": "CCCCC(=O)OCC(=O)[C@]1(O)Cc2c(O)c3c(c(O)c2[C@@H](O[C@H]2C[C@H](NC(=O)C(F)(F)F)[C@H](O)[C@H](C)O2)C1)C(=O)c1c(OC)cccc1C3=O [Valrubicin] (0.5 nM)", "Experimental system": "HCC1143", "normalised response / %": 102}
{"Molecule": "O=C(O)CCCCC(CCSCc1ccccc1)SCc1ccccc1 (stereo not drawn) [CPI-613] (10 nM)", "Experimental system": "HCC1143", "normalised response / %": 108}
{"Molecule": "CCc1cncnc1N1CCN(Cc2nc3ccc(C(F)(F)F)cc3[nH]2)CC1 (1 nM)", "Experimental system": "HCC1143", "normalised response / %": 99.5}
{"Molecule": "Cc1cnc(NC(=O)Nc2cc(Br)c(C)cc2OC[C@@H]2CNCCO2)cn1 [Rabusertib] (1 nM)", "Experimental system": "HCC1143", "normalised response / %": 104}
{"Molecule": "Nc1nc(F)nc2c1ncn2[C@@H]1O[C@H](CO)[C@@H](O)[C@@H]1O [Fludarabine] (1 nM)", "Experimental system": "HCC1143", "normalised response / %": 110}
{"Molecule": "Cc1cnc(NC(=O)Nc2cc(Br)c(C)cc2OC[C@@H]2CNCCO2)cn1 [Rabusertib] (0.1 nM)", "Experimental system": "HCC1143", "normalised response / %": 103}
{"Molecule": "CC[C@@H]1C(=O)N(C)c2cnc(Nc3ccc(C(=O)NC4CCN(C)CC4)cc3OC)nc2N1C1CCCC1 [BI 2536] (1 nM)", "Experimental system": "HCC1143", "normalised response / %": 100}
{"Molecule": "CC[C@H](C)C(=O)O[C@H]1C[C@H](O)C=C2C=C[C@H](C)[C@H](CC[C@@H](O)C[C@@H](O)CC(=O)O)[C@H]21 [Pravastatin] (1 nM)", "Experimental system": "HCC1143", "normalised response / %": 95.1}
{"Molecule": "N#Cc1ccc(C(c2ccc(C#N)cc2)n2cncn2)cc1 [Letrozole] (1000 nM)", "Experimental system": "HCC1143", "normalised response / %": 108}
{"Molecule": "Cc1ccc(-c2cc(C(F)(F)F)nn2-c2ccc(S(N)(=O)=O)cc2)cc1 [Celecoxib] (1 nM)", "Experimental system": "HCC1143", "normalised response / %": 96.8}
{"Molecule": "CC1=C(/C=C/C(C)=C/C=C/C(C)=C/C(=O)O)C(C)(C)CCC1 [Tretinoin] (1000 nM)", "Experimental system": "HCC1143", "normalised response / %": 96.8}
{"Molecule": "O=C(O)C(=O)O.[NH-][C@@H]1CCCC[C@H]1[NH-].[Pt+2] [Oxaliplatin] (1000 nM)", "Experimental system": "HCC1143", "normalised response / %": 95.5}
{"Molecule": "C=CC(=O)Nc1cc2c(Nc3ccc(F)c(Cl)c3)ncnc2cc1OCCCN1CCOCC1 [Canertinib] (10 nM)", "Experimental system": "HCC1143", "normalised response / %": 99.8}
{"Molecule": "CCCCC(=O)OCC(=O)[C@]1(O)Cc2c(O)c3c(c(O)c2[C@@H](O[C@H]2C[C@H](NC(=O)C(F)(F)F)[C@H](O)[C@H](C)O2)C1)C(=O)c1c(OC)cccc1C3=O [Valrubicin] (500 nM)", "Experimental system": "HCC1143", "normalised response / %": 75.5}
{"Molecule": "C=CCc1cccc(/C=N/NC(=O)CN2CCN(Cc3ccccc3)CC2)c1O [PAC-1] (1 nM)", "Experimental system": "HCC1143", "normalised response / %": 101}
{"Molecule": "CC[C@H](Nc1ncnc2[nH]cnc12)c1nc2cccc(F)c2c(=O)n1-c1ccccc1 [GS-1101] (1 nM)", "Experimental system": "HCC1143", "normalised response / %": 89.9}
{"Molecule": "CC1=C(/C=C/C(C)=C/C=C/C(C)=C/C(=O)O)C(C)(C)CCC1 [Tretinoin] (1 nM)", "Experimental system": "HCC1143", "normalised response / %": 99.5}
